# assayText: IV clearance determined at an peroral dose of 15 mg/kg.
# Format: ADME, organism-based
# Design: dose 15 mg/kg, route oral
# measurementContext: in vivo, po, read-out: Clearance
quantity: CL/F (mL/min/kg)

molecule="CC(C)Nc1cccnc1N1CCN(C(=O)c2cc3cc(NS(C)(=O)=O)ccc3[nH]2)CC1 [DELAVIRDINE]" quantity=CL/F quantitativereadout=13.6

---

# assayText: IV clearance determined at an iv dose of 15 mg/kg
# Assay type: ADME, organism-based
# Parameters: dose 15 mg/kg, route intravenous
# measurementContext: in vivo
quantity: clearance (mL/min/kg)

testsmiles=CCCc1cccnc1N(CC)C1CCN(C(=O)c2cc3cc(NS(C)(=O)=O)ccc3[nH]2)CC1 quantitativereadout=67

---

# assayText: Absolute oral bioavailability at an peroral dose of 30 mg/kg orally
# Format: ADME, organism-based
# measurementContext: in vivo, read-out: Bioavailabiility
quantity: bioavailability (%)

testsmiles=CCCc1cccnc1N(CC)C1CCN(C(=O)c2cc3cc(NS(C)(=O)=O)ccc3[nH]2)CC1 quantity=bioavailability quantitativereadout=9.8

---

# targetOrSystem: Human immunodeficiency virus type 1 reverse transcriptase (Human immunodeficiency virus 1, UniProt Q72547)
pIC50: −log10 of the molar value.
quantity: pIC50

testsmiles=CCCc1cccnc1N(CC)C1CCN(C(=O)c2cc3cc(NS(C)(=O)=O)ccc3[nH]2)CC1 quantitativereadout=6.57
testsmiles=CC(C)Cc1cccnc1N(C)C1CCN(C(=O)c2cc3cc(NS(C)(=O)=O)ccc3[nH]2)CC1 quantitativereadout=6.29
testsmiles=CCCN(c1ncccc1CC)C1CCN(C(=O)c2cc3cc(NS(C)(=O)=O)ccc3[nH]2)CC1 quantitativereadout=6.89
testsmiles=COC(=O)c1cccnc1N(C)C1CCN(C(=O)c2cc3cc(NS(C)(=O)=O)ccc3[nH]2)CC1 quantitativereadout=6.60
testsmiles=CCc1cccnc1N(CC)C1CCN(C(=O)c2cc3cc(NS(C)(=O)=O)ccc3[nH]2)CC1 quantitativereadout=7.01

---

# assayText: IV clearance determined at an iv dose of 15.2 mg/kg
# Format: ADME, organism-based
# Design: dose 15.2 mg/kg, route intravenous
# measurementContext: in vivo
quantity: clearance

testsmiles=CC(C)Cc1cccnc1N(C)C1CCN(C(=O)c2cc3cc(NS(C)(=O)=O)ccc3[nH]2)CC1 quantity=clearance result="45 mL/min/kg"

---

# assayText: Apparent terminal disposition half life […] at iv dose of 15.2 mg/kg
# Assay type: ADME, organism-based
# Design: dose 15.2 mg/kg, route intravenous
# measurementContext: read-out: T1/2 beta (converted)
quantity: half-life (min)

testsmiles=CC(C)Cc1cccnc1N(C)C1CCN(C(=O)c2cc3cc(NS(C)(=O)=O)ccc3[nH]2)CC1 quantity=half-life quantitativereadout=53.4

---

# targetOrSystem: Human immunodeficiency virus type 1 reverse transcriptase (Human immunodeficiency virus 1, UniProt Q72547)
# assayText: Inhibition of Reverse transcriptase (Wild Type) with poly(rA)600:oligo(dT)10 template primer
quantity: IC50

testsmiles=CCN(c1ncccc1CC(C)C)C1CCN(C(=O)c2cc3cc(NS(C)(=O)=O)ccc3[nH]2)CC1 result="410 nM"
testsmiles=CCNc1cccnc1N(CC)C1CCN(C(=O)c2cc3cc(NS(C)(=O)=O)ccc3[nH]2)CC1 result="430 nM"
testsmiles=CCN(c1ncccc1COC)C1CCN(C(=O)c2cc3cc(NS(C)(=O)=O)ccc3[nH]2)CC1 result="140 nM"
testsmiles=CCc1cccnc1N(C)C1CCN(C(=O)c2cc3cc(NS(C)(=O)=O)ccc3[nH]2)CC1 result="61 nM"
testsmiles=COCc1cccnc1N(C)C1CCN(C(=O)c2cc3cc(NS(C)(=O)=O)ccc3[nH]2)CC1 result="140 nM"

---

# assayText: Apparent terminal disposition half life […] at peroral dose of 30.3 mg/kg.
# Format: ADME, organism-based
# Set-up: dose 30.3 mg/kg, route oral
# measurementContext: po, read-out: T1/2 beta (converted)
quantity: half-life (min)

testsmiles=CC(C)Cc1cccnc1N(C)C1CCN(C(=O)c2cc3cc(NS(C)(=O)=O)ccc3[nH]2)CC1 quantitativereadout=53.4

---

# assayText: Half life of the parent compound upon microsomal incubation in the presence of hepatic microsomal cytochrome P450.
# Assay type: ADME, Microsome
# measurementContext: liver microsomes
quantity: half-life (min)

testsmiles=CCCc1cccnc1N(CC)C1CCN(C(=O)c2cc3cc(NS(C)(=O)=O)ccc3[nH]2)CC1 quantity=half-life quantitativereadout=1.68
testsmiles=CCN(c1ncccc1CC(C)C)C1CCN(C(=O)c2cc3cc(NS(C)(=O)=O)ccc3[nH]2)CC1 quantity=half-life quantitativereadout=2.29
testsmiles=CC(C)Cc1cccnc1N(C)C1CCN(C(=O)c2cc3cc(NS(C)(=O)=O)ccc3[nH]2)CC1 quantity=half-life quantitativereadout=5.9

---

# targetOrSystem: Human immunodeficiency virus type 1 reverse transcriptase (Human immunodeficiency virus 1, UniProt Q72547, P236L)
# assayText: Inhibition of Reverse transcriptase (P236L) using poly(rA)600:oligo(dT)10 as template primer.
Listed here are compounds together with their documented log10(IC50).
quantity: log10(IC50) (log10 of the value in µM)

testsmiles=CCN(c1ncccc1NC(C)C)C1CCN(C(=O)c2cc3cc(NS(C)(=O)=O)ccc3[nH]2)CC1 quantity=log10(IC50) quantitativereadout=-0.77
testsmiles=COCc1cccnc1N(C)C1CCN(C(=O)c2cc3cc(NS(C)(=O)=O)ccc3[nH]2)CC1 quantity=log10(IC50) quantitativereadout=0.83
testsmiles=CCN(c1ncccc1COC)C1CCN(C(=O)c2cc3cc(NS(C)(=O)=O)ccc3[nH]2)CC1 quantity=log10(IC50) quantitativereadout=-0.52
testsmiles=CCN(c1ncccc1CC(C)C)C1CCN(C(=O)c2cc3cc(NS(C)(=O)=O)ccc3[nH]2)CC1 quantity=log10(IC50) quantitativereadout=-0.37
testsmiles=COC(=O)c1cccnc1N(C)C1CCN(C(=O)c2cc3cc(NS(C)(=O)=O)ccc3[nH]2)CC1 quantity=log10(IC50) quantitativereadout=1.11
testsmiles=CC(C)Cc1cccnc1N(C)C1CCN(C(=O)c2cc3cc(NS(C)(=O)=O)ccc3[nH]2)CC1 quantity=log10(IC50) quantitativereadout=0.04
testsmiles=CCc1cccnc1N(CC)C1CCN(C(=O)c2cc3cc(NS(C)(=O)=O)ccc3[nH]2)CC1 quantity=log10(IC50) quantitativereadout=-0.68
